Data credit: paper doi:10.1101/2020.03.06.980961

# system-tested: T1, TFB2M-WT (human, UniProt Q9H5Q4 20-396)
# T1 sequence: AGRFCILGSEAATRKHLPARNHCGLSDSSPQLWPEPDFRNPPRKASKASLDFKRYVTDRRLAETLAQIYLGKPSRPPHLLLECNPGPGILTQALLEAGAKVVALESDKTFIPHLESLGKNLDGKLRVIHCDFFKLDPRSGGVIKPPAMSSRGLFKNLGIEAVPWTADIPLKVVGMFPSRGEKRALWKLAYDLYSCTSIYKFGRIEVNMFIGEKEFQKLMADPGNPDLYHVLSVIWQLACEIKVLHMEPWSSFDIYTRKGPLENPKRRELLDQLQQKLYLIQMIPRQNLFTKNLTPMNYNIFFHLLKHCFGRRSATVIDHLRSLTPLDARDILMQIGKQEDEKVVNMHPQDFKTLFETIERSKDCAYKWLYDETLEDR
# assay-details: fluorescence anisotropy
experimental-readout: pKd
Numbers only, as −log10 of the molar value.

Req: Name the reported pKd value associated with the binder TACCGCCAAAAG (ssDNA) [LSP NT]
Resp: 6.77
